- Tested on: BDF1 mice, P388 leukemia ip, median survival T/C
- assay_info: NCI In Vivo Anticancer Drug Screen. Data for tumor model P388 Leukemia (intraperitoneal) in B6D2F1 (BDF1) mice
- conditions: endpoint: median survival time; dose: 6.25 mg/kg/injection; schedule: Q01DX009 (ip); vehicle: saline; higher = longer survival
Inconclusive results and toxic doses are left out.
Below, each entry is listed with its recorded T/C.

These solved cases illustrate the format of a correct answer.
CC1C[N-]CC(C)C1.CC1C[N-]CC(C)C1.[Cl][Pt+2]([Cl])([Cl])[Cl] (stereo not given)
93 % of control
CN(C)c1ccc(-c2nc3ccccn3c2N)cc1
113 % of control
CCCCCCCCCCCCCC[N+](C)(C)CCCCCCCCCCCCCC
120 % of control
C=CC=O
109 % of control

Consider the record given below.
Please report the recorded T/C for COc1ccc(C(C#N)CC(=O)c2ccc(OC)c(OCc3ccccc3)c2)cc1OC (stereo not given) . 90 % of control

====

- System: BDF1 mice, P388 leukemia ip, median survival T/C
- assay_info: NCI In Vivo Anticancer Drug Screen. Data for tumor model P388 Leukemia (intraperitoneal) in B6D2F1 (BDF1) mice
- conditions: endpoint: median survival time; dose: 200.0 mg/kg/injection; schedule: Q01DX009 (ip); vehicle: saline; higher = longer survival
Inconclusive results and toxic doses are left out.
Quick reference: T/C of the listed items.

Cn1nnc(CC(=O)O)n1
99 % of control
NC(=O)C(O)C(Br)(Br)Br (stereo not drawn)
108 % of control
CC(C=C1CCCCC1)C(=O)O (stereo not drawn)
109 % of control
CCCCOC1OCN(CCOC)CC1(C)C (stereo not drawn)
118 % of control

Consider the compound shown here: NN1N=Nc2cccc3cccc1c23 What is its recorded T/C? 110 % of control

====

- System: BDF1 mice, P388 leukemia ip, median survival T/C
- assay_info: NCI In Vivo Anticancer Drug Screen. Data for tumor model P388 Leukemia (intraperitoneal) in B6D2F1 (BDF1) mice
- conditions: endpoint: median survival time; dose: 200.0 mg/kg/injection; schedule: Q01DX001 (ip); vehicle: Klucel (hydroxypropylcellulose) (HPC); higher = longer survival
Toxic doses and inconclusive results are not listed.
Below is a list of entries, each paired with its recorded T/C value.

Take a look at these entries with their results.
CCOC(=O)/C(C#N)=C\c1cc(=O)c(OC)co1
100 % of control
COc1ccc(CCN2C(=O)CSC2=S)cc1OC
100 % of control
CCCCCCCCCCCCCCOc1ccc(C=O)cc1OC
100 % of control
CC(=O)OC1CCC2(C)C(=CCC3C2CCC2(C)C(OC(=O)c4ccccc4)CCC32)C1 (stereo not drawn)
100 % of control
CC1(C)OC(=O)C(=Cc2c(Cl)cccc2Cl)C(=O)O1
104 % of control
CN(C)C(=O)C(=O)C1C=Cc2ccccc21 (stereo not drawn)
95 % of control
COc1ccc(C=O)c(Cl)c1OC
109 % of control
O=C(O)c1ccc(C(=O)c2ccccc2C(=O)O)cc1
100 % of control

For the compound shown here, CC(=O)c1cccc(N)c1 , give the reported T/C. 100 % of control

// returns reported T/C for input O=C(COc1cccc(Cl)c1)Nc1cccnc1 99 % of control

====

- System: BDF1 mice, P388 leukemia ip, median survival T/C
- assay_info: NCI In Vivo Anticancer Drug Screen. Data for tumor model P388 Leukemia (intraperitoneal) in B6D2F1 (BDF1) mice
- conditions: endpoint: median survival time; dose: 12.5 mg/kg/injection; schedule: Q01DX009 (ip); vehicle: saline with Tween-80; higher = longer survival
Toxic doses and inconclusive results are not listed.
endpoint_name: T/C

Example compounds with recorded T/C:
CC(=O)OC1C=CCC2C(=O)C3=C(C(=O)c4ccccc4C3=O)C(=O)C12 (stereo not drawn)
107 % of control
COc1ccccc1C(c1ccccc1OC)N(C)C(C)(C)CO
91 % of control
O=C(Nc1ccc(C2=NCCN2)cc1)Nc1cccc(NC(=O)Nc2cccc(C3=NCCN3)c2)c1
150 % of control
O=C1N(Br)C(=O)C(c2ccc(Cl)cc2)(c2ccc(Cl)cc2)N1Br
113 % of control

Could you tell me which T/C is on file for CN1CCN(C2=Nc3ccccc3Cc3ccccc32)CC1 ? 103 % of control

Request the reported T/C associated with CC(C)(C)NCCC(O)c1cc2c(Cl)cc(Cl)cc2c2cc(C(F)(F)F)ccc12 (stereo not drawn) 90 % of control

Request the reported T/C associated with Cc1c(C=[N+]2CCCCC2)c2ccccc2n1C 105 % of control

Name the reported T/C value associated with the compound O=C(CNC(=O)Nc1ccc(C2=NCCN2)cc1)Nc1ccc(C2=NCCN2)cc1 104 % of control

====

- Test system: BDF1 mice, P388 leukemia ip, median survival T/C
- assay_info: NCI In Vivo Anticancer Drug Screen. Data for tumor model P388 Leukemia (intraperitoneal) in B6D2F1 (BDF1) mice
- conditions: endpoint: median survival time; dose: 200.0 mg/kg/injection; schedule: Q04DX003 (ip); vehicle: saline; higher = longer survival
Toxic doses and inconclusive results are not listed.
This listing pairs compounds with measured T/C.

// worked examples, T/C included
CCSc1ccc2c(c1)N(CCCN1CCN(C)CC1)c1ccccc1S2
150 % of control
O=C(Cn1cc(F)c(=O)[nH]c1=O)c1cccs1
90 % of control
CC(=O)NC1CCCC(O)C1 (stereo not drawn)
113 % of control
O=C(/C=C/c1cccc([N+](=O)[O-])c1)NCCBr
100 % of control
CC(CS(=O)(=O)O)N1CCOCC1 (stereo not drawn)
100 % of control
CC(=O)N1C(=O)NC(=O)C1(CSCc1ccccc1)CSCc1ccccc1
107 % of control
COC1c2cnc(C)n2C=CN1C(C)=O (stereo not drawn)
104 % of control
C[N+]1(C2CCC3CCC2C3O)CCCCC1 (stereo not drawn)
122 % of control

Requested read-out: T/C. Entry: CNC(=O)c1nc(C)c(C)nc1OCc1ccccc1 96 % of control

Requested read-out: T/C. Entry: N#Cc1ccc(OC(=O)c2ccc(N=C(N)N)cc2)cc1 113 % of control

Could you tell me which T/C is on file for NC1CONC1=O (stereo not drawn) ? 100 % of control

// query T/C value for entry CC(=O)OCc1ccc(-n2c(C(F)(F)F)nc3nc(Cl)c(Cl)nc32)o1 101 % of control

Can you share its T/C? I mean this compound: O=C(O)c1cc(I)cc(I)c1 100 % of control

====

- System: BDF1 mice, P388 leukemia ip, median survival T/C
- assay_info: NCI In Vivo Anticancer Drug Screen. Data for tumor model P388 Leukemia (intraperitoneal) in B6D2F1 (BDF1) mice
- conditions: endpoint: median survival time; dose: 100.0 mg/kg/injection; schedule: Q01DX001 (ip); vehicle: Klucel (hydroxypropylcellulose) (HPC); higher = longer survival
Toxic doses and inconclusive results are not listed.
endpoint_name: T/C

The cases that follow already have their T/C on record.
CC(=O)OC1CCC2(C)C(=CCC3C2CCC2(C)C(OC(=O)c4ccccc4)CCC32)C1 (stereo not given)
100 % of control
CC(C)n1c(=S)[nH]c2ccccc2c1=O
100 % of control
CC(=O)c1ccccc1Br
95 % of control
COc1ccc(CCN2C(=O)CSC2=S)cc1OC
90 % of control
O=C(CCCCN1CCc2[nH]c3ccc(F)cc3c2C1)c1ccc(F)cc1
116 % of control
CC(C)(C)OC(=O)NNC(c1ccccc1)c1ccccc1
91 % of control
O=C(O)c1ccc(C(=O)c2ccccc2C(=O)O)cc1
95 % of control
CC1(C)OC(=O)C(=Cc2c(Cl)cccc2Cl)C(=O)O1
109 % of control
COC(OC)c1[nH]c(=S)[nH]c(=O)c1Cc1cc(C)ccc1C
104 % of control

Moving on to the next molecule.
Recorded T/C for CN=Cc1ccc([N+](=O)[O-])cc1 , please? 113 % of control

====

- Test system: BDF1 mice, P388 leukemia ip, median survival T/C
- assay_info: NCI In Vivo Anticancer Drug Screen. Data for tumor model P388 Leukemia (intraperitoneal) in B6D2F1 (BDF1) mice
- conditions: endpoint: median survival time; dose: 25.0 mg/kg/injection; schedule: Q01DX009 (ip); vehicle: saline with Tween-80
Toxic doses and inconclusive results are not listed. How the source made its calls: active means survival T/C of 150% or more; inactive means T/C below 125% in these data.
Return exactly one item of Y = active, N = inactive

Use these answered entries as a reference point.
C#CC(OC(=O)NC1CCCCC1)(c1ccccc1)c1ccccc1
Y
C=CCCCCCCCCC(=O)NCCCN1CCOCC1
N
C[C@H](CCC[C@H](C)OS(=O)(=O)c1ccccc1)OS(=O)(=O)c1ccccc1
N

Returns: the outcome recorded for COC(CN1C(=O)CSC1=S)OC in this assay. N

Status in this test for C(=C/c1ccnc2ccccc12)/c1cccs1 ? N

Hi team, can someone confirm the assay call for Nc1ccc(S(=O)(=O)N/N=C/c2ccccc2[N+](=O)[O-])cc1 ? N

Assay outcome for C[n+]1ccc2cc(N)c3c4ccccc4sc3c2c1 : what was it? Y

What classification did Cc1cc(C)nc(NC(N)=NCCc2ccccc2)n1 end up with in this test? N

Hi team, can someone confirm the assay call for CCC1=C(c2cc(Cl)c3ccccc3c2OCC(=O)O)OC(CC)(C(=O)c2cc(Cl)c3ccccc3c2OCC(=O)O)CC1 (configuration not stated) ? N

Could you kindly confirm the outcome this assay logged for O/N=C(\c1ccccc1)c1ccccn1 ? N

Recorded test outcome, item CC1(C)N=C(N)N=C(N)N1c1cccc(CC(=O)Nc2ccc(S(=O)(=O)F)cc2)c1 N

Outcome? Cc1c(C=[N+]2CCCCC2)c2ccccc2n1C N

I would be grateful if you could indicate the recorded call for COC1(c2ccc([N+](=O)[O-])o2)OC1(C)C (configuration not stated) . N

Record lookup: outcome of this test for NC(N)=NCCCCCCC(=O)Nc1ccc(S(N)(=O)=O)cc1 ? N

Please indicate how the test categorized CN1CC=Nc2c1nc(N)[nH]c2=O . N

Hello, I am checking results. What call was entered for NC1=Nc2cccc3cccc(c23)N1 ? N
